- system: SMARCA2 (Homo sapiens (Human))
- Sequence (P51531 whole entry): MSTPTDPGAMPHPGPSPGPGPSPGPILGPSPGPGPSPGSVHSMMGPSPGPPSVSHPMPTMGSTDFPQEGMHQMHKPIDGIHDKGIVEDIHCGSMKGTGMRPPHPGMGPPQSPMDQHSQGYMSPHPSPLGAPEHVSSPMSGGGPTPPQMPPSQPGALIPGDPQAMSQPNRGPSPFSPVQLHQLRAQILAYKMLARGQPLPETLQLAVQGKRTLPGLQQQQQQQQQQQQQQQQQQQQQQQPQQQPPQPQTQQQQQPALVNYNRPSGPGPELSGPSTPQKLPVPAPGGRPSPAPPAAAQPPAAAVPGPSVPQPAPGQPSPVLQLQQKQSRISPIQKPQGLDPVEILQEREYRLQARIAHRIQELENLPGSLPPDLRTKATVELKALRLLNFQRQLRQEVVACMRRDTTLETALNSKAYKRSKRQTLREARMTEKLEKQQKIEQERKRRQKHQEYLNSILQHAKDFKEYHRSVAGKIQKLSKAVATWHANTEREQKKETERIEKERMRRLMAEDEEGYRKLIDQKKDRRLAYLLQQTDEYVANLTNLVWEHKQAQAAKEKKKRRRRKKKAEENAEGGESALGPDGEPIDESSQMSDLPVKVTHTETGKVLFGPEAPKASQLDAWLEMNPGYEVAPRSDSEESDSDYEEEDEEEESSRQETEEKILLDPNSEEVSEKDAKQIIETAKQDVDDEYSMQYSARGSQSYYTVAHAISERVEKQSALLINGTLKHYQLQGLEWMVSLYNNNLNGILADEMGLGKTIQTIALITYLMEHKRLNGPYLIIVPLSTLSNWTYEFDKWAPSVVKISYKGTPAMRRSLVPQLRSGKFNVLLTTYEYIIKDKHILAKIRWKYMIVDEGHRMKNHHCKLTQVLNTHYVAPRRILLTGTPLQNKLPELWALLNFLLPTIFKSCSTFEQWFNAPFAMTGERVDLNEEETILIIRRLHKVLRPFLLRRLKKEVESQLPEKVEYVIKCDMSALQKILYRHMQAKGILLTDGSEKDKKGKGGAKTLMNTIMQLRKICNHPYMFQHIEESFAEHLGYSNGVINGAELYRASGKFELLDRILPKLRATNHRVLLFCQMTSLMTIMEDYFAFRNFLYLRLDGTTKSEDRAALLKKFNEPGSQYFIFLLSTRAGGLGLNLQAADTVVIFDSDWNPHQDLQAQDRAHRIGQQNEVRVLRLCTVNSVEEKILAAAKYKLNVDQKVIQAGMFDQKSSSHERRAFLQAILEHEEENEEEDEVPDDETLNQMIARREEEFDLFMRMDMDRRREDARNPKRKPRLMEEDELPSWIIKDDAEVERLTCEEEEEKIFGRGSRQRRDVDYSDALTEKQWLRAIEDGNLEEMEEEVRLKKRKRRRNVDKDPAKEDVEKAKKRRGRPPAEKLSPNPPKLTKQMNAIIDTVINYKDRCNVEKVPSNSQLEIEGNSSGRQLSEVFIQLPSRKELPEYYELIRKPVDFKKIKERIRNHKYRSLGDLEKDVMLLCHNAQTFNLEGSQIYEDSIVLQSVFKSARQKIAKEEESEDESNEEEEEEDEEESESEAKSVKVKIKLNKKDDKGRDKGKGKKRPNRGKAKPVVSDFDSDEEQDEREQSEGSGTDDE
- assay.explanation: SMARCA2 HiBiT degradation assay in HeLa cells
- Type: cell-based
- measurement.context: 18 hours, read-out: Dmax % (SM2-HeLa) maximum SMARCA2 degradation within the concentrations tested
quantity.kind: Dmax

{"compound": "Cc1ncsc1-c1ccc([C@H](CO)NC(=O)[C@@H]2C[C@@H](O)CN2C(=O)C(c2cc(OCCN3CCC(CN4CCN5c6cc(-c7ccccc7O)nnc6NC[C@H]5C4)CC3)no2)C(C)C)cc1 (stereo partly drawn) [Example 46]", "quantity.kind": "Dmax", "result": "> 75%"}
{"compound": "Cc1ncsc1-c1ccc([C@H](C)NC(=O)[C@@H]2C[C@@H](O)CN2C(=O)[C@@H](c2cc(OCCN3CCC(N4CCN5c6cc(-c7ccccc7O)nnc6NC[C@H]5C4)CC3)no2)C(C)C)cc1 [Example 76]", "quantity.kind": "Dmax", "result": "> 75%"}
{"compound": "Cc1ncsc1-c1ccc([C@H](C)NC(=O)[C@@H]2C[C@@H](O)CN2C(=O)[C@@H](c2cc(OC(C)CN3CCCC(CN4CCN5c6cc(-c7ccccc7O)nnc6NC[C@H]5C4)CC3)no2)C(C)C)cc1 (stereo partly drawn) [Example 68]", "quantity.kind": "Dmax", "result": "> 75%"}
{"compound": "Cc1ncsc1-c1ccc([C@H](C)NC(=O)[C@@H]2C[C@@H](O)CN2C(=O)[C@@H](c2cc(OCCN3CCC(C(=O)N4CCN5c6cc(-c7ccccc7O)nnc6NC[C@H]5C4)CC3)no2)C(C)C)cc1 [Example 98]", "quantity.kind": "Dmax", "result": "> 75%"}
{"compound": "Cc1ncsc1-c1ccc([C@H](C)NC(=O)[C@@H]2C[C@@H](O)CN2C(=O)[C@@H](c2cc(O[C@@H](C)C(=O)N3CCC(N4CCN5c6cc(-c7ccccc7O)nnc6NC[C@H]5C4)CC3)no2)C(C)C)cc1 [Example 27]", "quantity.kind": "Dmax", "result": "> 75%"}

Known value: SMARCA2 (Homo sapiens (Human)) Dmax of the compound Cc1ncsc1-c1ccc([C@H](C)NC(=O)[C@@H]2C[C@@H](O)CN2C(=O)[C@@H](c2cc(OCCN3CC=C(CN4CCN5c6cc(-c7ccccc7O)nnc6NC[C@H]5C4)CC3)no2)C(C)C)cc1 [Example 90] equals > 75%

---

Catalogue of molecules with associated Dmax
- system: SMARCA4 (Homo sapiens (Human), UniProt P51532)
- Sequence (P51532 whole entry): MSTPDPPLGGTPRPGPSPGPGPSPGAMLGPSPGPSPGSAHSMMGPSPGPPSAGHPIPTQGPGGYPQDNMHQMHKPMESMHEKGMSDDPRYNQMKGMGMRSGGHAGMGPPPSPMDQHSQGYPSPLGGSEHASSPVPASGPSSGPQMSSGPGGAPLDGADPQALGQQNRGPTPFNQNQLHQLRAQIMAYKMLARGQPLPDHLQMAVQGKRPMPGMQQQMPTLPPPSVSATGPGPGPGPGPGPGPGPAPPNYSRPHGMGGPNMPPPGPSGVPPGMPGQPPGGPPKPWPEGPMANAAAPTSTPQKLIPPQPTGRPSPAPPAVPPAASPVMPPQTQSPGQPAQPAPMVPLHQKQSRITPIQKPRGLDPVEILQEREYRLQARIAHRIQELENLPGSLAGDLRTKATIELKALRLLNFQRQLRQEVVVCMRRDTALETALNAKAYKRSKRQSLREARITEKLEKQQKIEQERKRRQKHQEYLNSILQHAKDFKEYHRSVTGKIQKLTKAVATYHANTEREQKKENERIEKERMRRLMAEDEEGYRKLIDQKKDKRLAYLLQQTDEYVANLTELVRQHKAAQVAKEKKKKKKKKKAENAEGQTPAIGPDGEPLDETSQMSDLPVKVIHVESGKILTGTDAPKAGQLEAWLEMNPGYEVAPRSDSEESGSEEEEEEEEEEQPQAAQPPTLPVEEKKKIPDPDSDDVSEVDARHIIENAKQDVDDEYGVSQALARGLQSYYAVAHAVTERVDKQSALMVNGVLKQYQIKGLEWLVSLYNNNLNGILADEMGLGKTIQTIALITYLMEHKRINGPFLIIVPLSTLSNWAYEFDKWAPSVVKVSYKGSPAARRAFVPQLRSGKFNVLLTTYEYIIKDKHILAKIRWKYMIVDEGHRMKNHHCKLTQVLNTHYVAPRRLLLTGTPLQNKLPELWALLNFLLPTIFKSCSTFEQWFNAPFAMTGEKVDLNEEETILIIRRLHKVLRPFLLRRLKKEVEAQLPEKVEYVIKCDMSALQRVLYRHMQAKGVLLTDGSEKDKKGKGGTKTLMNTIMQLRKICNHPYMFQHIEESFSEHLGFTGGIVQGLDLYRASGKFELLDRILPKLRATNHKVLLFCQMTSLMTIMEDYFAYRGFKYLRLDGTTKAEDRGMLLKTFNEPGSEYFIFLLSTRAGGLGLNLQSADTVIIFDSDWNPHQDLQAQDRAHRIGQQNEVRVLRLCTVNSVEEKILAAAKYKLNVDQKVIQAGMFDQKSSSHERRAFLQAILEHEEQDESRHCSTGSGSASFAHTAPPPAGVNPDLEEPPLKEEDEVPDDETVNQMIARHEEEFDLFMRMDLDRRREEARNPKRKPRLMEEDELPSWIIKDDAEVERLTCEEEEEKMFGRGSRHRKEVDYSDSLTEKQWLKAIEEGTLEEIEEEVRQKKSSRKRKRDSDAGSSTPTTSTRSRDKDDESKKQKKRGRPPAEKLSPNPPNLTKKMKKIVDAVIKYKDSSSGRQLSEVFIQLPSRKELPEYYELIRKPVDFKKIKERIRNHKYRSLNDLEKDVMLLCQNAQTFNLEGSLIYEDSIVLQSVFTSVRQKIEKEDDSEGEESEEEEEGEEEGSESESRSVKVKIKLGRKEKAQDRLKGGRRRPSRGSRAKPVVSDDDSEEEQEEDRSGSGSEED
- assay.explanation: SMARCA4 HiBiT degradation assay in HeLa cells
- Assay type: cell-based
- measurement.context: HeLa, 18 hours, read-out: Dmax % (SM4-HeLa) maximum SMARCA4 degradation within the concentrations tested

{"molecule": "Cc1ncsc1-c1ccc([C@H](C)NC(=O)[C@@H]2C[C@@H](O)CN2C(=O)[C@@H](c2cc(OCCN3CCC(N4CCC(N5CCN6c7cc(-c8ccccc8O)nnc7NC[C@H]6C5)CC4)C3)no2)C(C)C)cc1 (stereo partly shown)", "result": "50 to 75%"}
{"molecule": "Cc1ncsc1-c1ccc([C@H](C)NC(=O)[C@@H]2C[C@@H](O)CN2C(=O)[C@@H](c2cc(OC(C)CN3CCCC(CN4CCN5c6cc(-c7ccccc7O)nnc6NC[C@H]5C4)CC3)no2)C(C)C)cc1 (stereo partly shown)", "result": "> 75%"}
{"molecule": "Cc1ncsc1-c1ccc([C@H](C)NC(=O)[C@@H]2C[C@@H](O)CN2C(=O)[C@@H](c2cc(OCCN3CCN4c5cc(-c6ccccc6O)nnc5NC(C)C4C3)no2)C(C)C)cc1 (stereo partly shown)", "result": "> 75%"}

Then there is this molecule:
The molecule listed as `Cc1ncsc1-c1ccc([C@H](C)NC(=O)[C@@H]2C[C@@H](O)CN2C(=O)[C@@H](c2cc(OCCN3CCC(CN4CCN5c6cc(-c7ccccc7O)nnc6NC[C@H]5C4)CC3)no2)C(C)C)cc1` has a reported Dmax of > 75%
